compounds and their reported pIC50
# ASSAY_TARGET: CRBN/DDB1 (Homo sapiens (Human))
# Sequence (Q96SW2 whole entry): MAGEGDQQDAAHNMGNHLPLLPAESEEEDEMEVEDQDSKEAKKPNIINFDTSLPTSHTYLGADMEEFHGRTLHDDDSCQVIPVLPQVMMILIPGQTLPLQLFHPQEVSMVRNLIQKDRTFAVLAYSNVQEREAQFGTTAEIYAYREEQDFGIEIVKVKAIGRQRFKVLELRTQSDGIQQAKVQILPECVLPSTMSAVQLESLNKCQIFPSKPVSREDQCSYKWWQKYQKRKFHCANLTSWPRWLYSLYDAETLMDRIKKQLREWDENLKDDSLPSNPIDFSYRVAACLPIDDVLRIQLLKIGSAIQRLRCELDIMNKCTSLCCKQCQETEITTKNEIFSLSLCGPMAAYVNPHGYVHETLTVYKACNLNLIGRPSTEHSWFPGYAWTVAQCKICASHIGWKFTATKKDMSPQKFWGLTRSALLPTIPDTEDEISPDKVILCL
# Sequence (Q16531 whole entry partner): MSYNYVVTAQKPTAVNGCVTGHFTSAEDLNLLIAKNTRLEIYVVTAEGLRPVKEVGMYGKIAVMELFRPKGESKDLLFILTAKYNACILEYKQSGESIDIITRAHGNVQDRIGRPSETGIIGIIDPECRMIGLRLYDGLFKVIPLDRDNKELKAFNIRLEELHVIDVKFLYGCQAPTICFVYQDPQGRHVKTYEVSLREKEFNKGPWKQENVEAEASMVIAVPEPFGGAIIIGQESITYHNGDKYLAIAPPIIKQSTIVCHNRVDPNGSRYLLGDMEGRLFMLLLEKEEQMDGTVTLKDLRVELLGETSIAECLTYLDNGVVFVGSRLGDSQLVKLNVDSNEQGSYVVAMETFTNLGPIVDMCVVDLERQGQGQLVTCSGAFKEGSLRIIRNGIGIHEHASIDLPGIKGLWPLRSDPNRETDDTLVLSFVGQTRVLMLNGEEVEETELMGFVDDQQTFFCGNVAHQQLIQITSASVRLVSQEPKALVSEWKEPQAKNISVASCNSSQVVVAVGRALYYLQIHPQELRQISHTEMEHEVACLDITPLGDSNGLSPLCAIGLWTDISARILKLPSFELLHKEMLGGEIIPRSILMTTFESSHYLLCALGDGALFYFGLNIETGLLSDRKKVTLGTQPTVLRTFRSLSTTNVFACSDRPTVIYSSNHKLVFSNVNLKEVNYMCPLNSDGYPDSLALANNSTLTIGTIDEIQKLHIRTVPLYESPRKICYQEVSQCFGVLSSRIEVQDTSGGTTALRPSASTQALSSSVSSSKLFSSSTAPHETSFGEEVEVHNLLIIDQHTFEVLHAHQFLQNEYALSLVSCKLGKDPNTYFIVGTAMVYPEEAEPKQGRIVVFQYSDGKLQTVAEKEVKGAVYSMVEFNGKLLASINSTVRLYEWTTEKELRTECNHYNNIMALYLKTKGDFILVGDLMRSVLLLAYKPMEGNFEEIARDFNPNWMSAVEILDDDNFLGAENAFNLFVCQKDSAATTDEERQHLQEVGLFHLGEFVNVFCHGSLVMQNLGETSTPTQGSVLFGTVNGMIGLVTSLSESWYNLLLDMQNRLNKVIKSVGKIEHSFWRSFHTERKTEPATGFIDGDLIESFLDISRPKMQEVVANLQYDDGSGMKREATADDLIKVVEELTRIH
# TEST_METHOD_NOTES: HTRF binding assay to CRBN/DDB1
# CONDITIONS_USED: read-out: CRBN HTRF IC50
# Protocol: The binding potency was determined using HTRF assay technology (Perkin Elmer). Compounds were serially diluted in DMSO and 0.2 μL volume was transferred to white 384-well plate.
pIC50: −log10 of the molar value.

- COMPOUND: "O=C1CC[C@@H](NC(=O)c2ccc(N3CCC(CN4CC5(CCN(c6ccc([C@H]7c8ccc(O)cc8OC[C@H]7c7ccccc7)cc6)CC5)C4)CC3)cn2)C(=O)N1 (single isomer, unassigned)"
  pIC50: "5.30 to 6.30"
- COMPOUND: "O=C1CC[C@H](NC(=O)c2ccc3c(n2)OC[C@H]2CN(C[C@H]4COC5(CCN(c6ccc([C@@H]7c8ccc(O)cc8OC[C@@H]7c7ccccc7)cc6)CC5)C4)CCN32)C(=O)N1"
  pIC50: "5.30 to 6.30"
- COMPOUND: "O=C1CCN(c2ccc(N3CCC4(CC3)CC(CN3CCN(c5ccc([C@H]6c7ccc(O)cc7OC[C@H]6c6ccccc6)cc5)CC3)C4)cc2)C(=O)N1 (single isomer, unassigned)"
  pIC50: "< 5.30"
